test: Antagonist activity at voltage gated calcium channel in Sprague-Dawley rat striatal synaptoneurosomes assessed as inhibition of KCl-induced calcium flux at 100 uM by spectrofluorimetric analysis relative to control; assay type: functional

>  <compound>
O=C(NCCCNC12CC3CC(CC(C3)C1)C2)c1cc2ccccc2oc1=O

>  <scaleUnit>
%

>  <inhibition (INH)>
67.99

$$$$
>  <compound>
NCCCNC12CC3CC(CC(C3)C1)C2

>  <scaleUnit>
%

>  <inhibition (INH)>
89.3

$$$$
>  <compound>
OC12C3C4CC5C6C4C1C6C1(OCCCN21)C53 (stereo not given)

>  <scaleUnit>
%

>  <inhibition (INH)>
87.24

$$$$
>  <compound>
O=C(OC12C3C4CC5C6C4C1C6C1(OCCCN12)C53)c1n[nH]c2ccccc12 (stereo not given)

>  <scaleUnit>
%

>  <inhibition (INH)>
83.62

$$$$
>  <compound>
O=C(NCCCNC12CC3CC(CC(C3)C1)C2)c1n[nH]c2ccccc12

>  <scaleUnit>
%

>  <inhibition (INH)>
86.91

$$$$
>  <compound>
CNc1ccccc1C(=O)NCCCNC12CC3CC(CC(C3)C1)C2

>  <scaleUnit>
%

>  <inhibition (INH)>
87.91

$$$$
>  <compound>
CN(C)c1cccc2c(S(=O)(=O)NCCCNC34CC5CC(CC(C5)C3)C4)cccc12

>  <scaleUnit>
%

>  <inhibition (INH)>
36.74

$$$$
>  <compound>
O=[N+]([O-])c1ccc(NCCCNC23CC4CC(CC(C4)C2)C3)c([N+](=O)[O-])c1

>  <scaleUnit>
%

>  <inhibition (INH)>
88.5

$$$$
>  <compound>
N#Cc1c2ccccc2cn1CCCNC12CC3CC(CC(C3)C1)C2

>  <scaleUnit>
%

>  <inhibition (INH)>
45.92

$$$$
>  <compound>
CNc1ccccc1C(=O)OC12C3C4CC5C6C4C1C6C1(OCCCN12)C53 (stereo not given)

>  <scaleUnit>
%

>  <inhibition (INH)>
84.79

$$$$
